// data source = PubChem BioAssay (NCI)

# System: SF-539 CNS
# procedureDetails: NCI tumour cell line growth inhibition, 48 h
Entries and their TGI
readout: TGI (µM)

INSERT INTO measurements (compound, readoutqualifier, assayresult) VALUES
  ('O=Cc1ccc2c(c1)CC1(Cc3ccccc3C1)C2', '=', 33.2),
  ('O=C(N/N=C/c1ccc(Cl)cc1)c1ccc(C(F)(F)F)nc1Nc1cccc(C(F)(F)F)c1', '=', 6.69),
  ('COC(CNC(=O)C(C)NC(=O)CCc1ccccc1)OC (stereo not given)', '>', 100),
  ('COc1ccc(Cn2cc3c(c2-c2ccccc2)CC(C)(C)c2cnoc2-3)cc1', '=', 6.02),
  ('COC1=C(C)C(=O)c2c(c(COC(N)=O)c3n2CC2C3N2C)C1=O (stereo not given)', '=', 0.12),
  ('CCN(CC)C(=S)N/N=C(/C)c1cccc(/C(C)=N\NC(=S)N(CC)CC)n1', '=', 3.28),
  ('Cc1cc(Cl)ccc1N=C1NC(=O)C(CC(=O)Nc2ccc([N+](=O)[O-])cc2[N+](=O)[O-])S1 (stereo not given)', '=', 59.1),
  ('COc1cc(/C=C2\C(=O)N(c3ccccc3)C(c3ccccc3)S2(=O)=O)cc(OC)c1OC (stereo not given)', '>', 100),
  ('C=C1C(=O)O[C@@H]2/C=C(\C)CC/C=C(/COC(C)=O)C[C@@H](OC(C)=O)[C@@H]12', '=', 36.3),
  ('COC1(OC)C2(Cl)C(Cl)=C(Cl)C1(Cl)C1C=CC=CC12 (stereo not given)', '>', 100),
  ('C1=CC2SSSC2C1 (stereo not given)', '>', 100),
  ('COc1cc(CNCc2cc(OC)c(OC)c(OC)c2)cc(OC)c1OC', '>', 10),
  ('CC(C)[Si](OC1=C(C(=O)N(C)c2cccc(Cl)c2)CCCC1)(C(C)C)C(C)C', '=', 40.4),
  ('CCOCc1nc2c(OC)cc(-c3nc4ccc(N5CCN(C)CC5)cc4[nH]3)c(OC)c2[nH]1', '=', 36.1),
  ('CN(C)C(=O)c1cc2cnc(Nc3ccc(-c4csc5c(=S)cc(N6CCOCC6)oc45)cc3)nc2n1C1CCCC1', '=', 2.03),
  ('CCN(CC)CCNc1nc2ccc([N+](=O)[O-])cc2[n+]([O-])n1', '=', 54.2),
  ('CC(C)(C)OC(=O)NC(Cc1ccc(OCc2ccccc2)cn1)C(=O)N1CCCCC1 (stereo not given)', '>', 100),
  ('COc1ccc(/C=C/c2ccnc3ccccc23)c(OC)c1', '>', 10),
  ('NS(=O)(=O)c1ccc(NC2(C(=O)O)CCCC2)cc1', '>', 100),
  ('CC1CC[C@]2(C(=O)O)CCC3(C)C(=CC(=O)C4[C@@]5(C)CCC(=O)C(C)(C)C5CC[C@]43C)[C@@H]2[C@H]1C (stereo not given in full)', '=', 44.1);

----------
# Tested on: MDA-MB-231 breast
# procedureDetails: NCI tumour cell line growth inhibition, 48 h
Parameter threshold = 40 µM. Response is yes when TGI meets or exceeds it, else no.

INSERT INTO assay_data (compound, classification) VALUES
  ('C=CC(CCc1ccc(C(=O)OCC)cc1)c1c(N)nc(N)[nH]c1=O (stereo unspecified)', 'yes'),
  ('CC(C)(C)c1cc(Br)c(O)c(CN(Cc2cc(C(C)(C)C)cc(Br)c2O)C2CCCCC2)c1', 'no'),
  ('CC(C)=CCC/C(C)=C/C=C/C(C)=C/C=C/C(C)=C/C=C/C=C(C)/C=C/C=C(C)/C=C/[C@H]1C(C(C)(C)O)CC[C@]1(C)O (stereo partly specified)', 'yes'),
  ('Cc1cccc(N=NC(=O)NNc2cccc(C)c2C)c1C', 'yes'),
  ('COCN(CCC1=CCCCC1)C(=O)OC', 'yes'),
  ('COC1=C(OC)C(=O)C(Cc2c(C)nc3sc(C)cn23)=C(C)C1=O', 'no'),
  ('CN1CCN(CCCOc2ccc3nc(Nc4ccc(Cl)c(C(F)(F)F)c4)ccc3c2)CC1', 'no'),
  ('Cc1ccc(/C=C2\CCCc3ccccc3C2=O)cc1', 'no'),
  ('N=C1C(c2nc3ccccc3s2)=C(O)CN1c1cc(C(F)(F)F)ccc1Cl', 'yes'),
  ('CNc1ccc(C(=O)CC(O)CCC(C)C2OC(=O)CC(O)CC(=O)CC(O)CC(O)CC(O)CC(O)CC3(O)CC(O)C(C(=O)OC)C(CC(O[C@@H]4O[C@H](C)[C@@H](O)[C@H](N)[C@@H]4O)/C=C/C=C/C=C/C=C/C=C/C=C/C=C/C2C)O3)cc1 (stereo partly specified)', 'yes'),
  ('C[N+](C)(C)CC1CCCCCCCCCCC1=O (stereo unspecified)', 'yes');
